Attribution: patent US20260242478A1

Hi there, I'd appreciate the recorded Anti-CD28 Fab signal in the presence of CD28 (phage binding ELISA) for every entry that follows.
Target: T1, Anti-CD28 Fab (SEQ ID NOs: 696, 697)
T1 construct: Biotinylated and captured on neutravidin coated plates in the phage ELISA
T1 sequence (VH, as listed by the source, chain 1 of 2): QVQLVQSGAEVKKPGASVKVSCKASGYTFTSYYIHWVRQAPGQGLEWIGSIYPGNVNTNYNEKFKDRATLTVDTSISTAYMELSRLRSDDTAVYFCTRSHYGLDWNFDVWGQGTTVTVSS
T1 sequence (VL, as listed by the source, chain 2 of 2): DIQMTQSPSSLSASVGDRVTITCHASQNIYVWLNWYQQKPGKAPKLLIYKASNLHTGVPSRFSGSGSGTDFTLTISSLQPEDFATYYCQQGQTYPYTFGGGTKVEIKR
Assay: phage ELISA on captured anti-CD28 Fab, wells pre-incubated with CD28 antigen as competitor;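 further: crude clonal phage supernatants added without washing, bound phage read out by HRP-coupled anti-M13 antibody, reference wells given blocking buffer only instead of CD28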
# respond with the number and nothing more

In: I would be grateful if you could share the reported Anti-CD28 Fab signal in the presence of CD28 (phage binding ELISA) for YCDGHSSVYMLKCL [Phage-1130] .
Out: 0.06

In: // next record YCEGHTQEYMQKCL [Phage-1138]
Out: 0.07

In: // next record YCEGHSEEYMAKCL [Phage-1132]
Out: 0.07

In: // next record YCEGHLPMYMTKCL [Phage-1136]
Out: 0.06

In: // next record YCEGHLQEHMAKCL [Phage-1134]
Out: 0.05
